# Tested system: T1, rNPR1-ANP complex (rat, UniProt P01160 124-151 (human entry), limits assumed)
# T1 construct: rNPR1 antigen in the presence of ANP; also called rNPR1 + 100 nM ANP
# T1 sequence: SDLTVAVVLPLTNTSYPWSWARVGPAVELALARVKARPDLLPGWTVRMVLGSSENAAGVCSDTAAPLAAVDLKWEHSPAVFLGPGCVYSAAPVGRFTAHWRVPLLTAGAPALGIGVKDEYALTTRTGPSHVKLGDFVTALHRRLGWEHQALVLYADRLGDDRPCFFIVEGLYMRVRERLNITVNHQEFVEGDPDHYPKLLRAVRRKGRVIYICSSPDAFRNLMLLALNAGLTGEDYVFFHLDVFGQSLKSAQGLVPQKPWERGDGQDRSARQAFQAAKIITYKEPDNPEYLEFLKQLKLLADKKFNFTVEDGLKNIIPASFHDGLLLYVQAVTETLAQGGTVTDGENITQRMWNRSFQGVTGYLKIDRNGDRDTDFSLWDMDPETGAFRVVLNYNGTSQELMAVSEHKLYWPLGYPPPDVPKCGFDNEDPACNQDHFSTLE
# T1 sequence (peptide): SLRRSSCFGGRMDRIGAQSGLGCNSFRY
# Protocol details: SET, FabCys
Reported property: Kd (nM)
Report the value in nM with no unit label.

The following binders have reported results that may help.
XX08 (FabCys format) (Fab, V domains shown, Monovalent FabCys) VH: EVQLLESGGGLVQPGGSLRLSCAASGFTFNTHYIHWVRQAPGKGLEWVSSIGGQGGMTLYADSVKGRFTISRDNSKNTLYLQMNSLRAEDTAVYYCARERGYVYYHMFDPWGQGTLVTVSS VL: DIVLTQSPATLSLSPGERATLSCRASQSITRNYLAWYQQKPGQAPRLLIYGASSRATGIPARFSGSGSGTDFTLTISSLEPEDFAVYYCQQHSMYPRTFGQGTKVEIK	0.2
XX12 (FabCys format) (Fab, V domains shown, Monovalent FabCys) VH: QVQLLESGGGLVQPGGSLRLSCAASGFTFSSYWMNWVRQAPGKGLEWVSAISSDGSYTYYADSVKGRFTISRDNSKNTLYLQMNSLRAEDTAVYYCARDRYSMIYSYGAGAFDYWGQGTLVTVSS VL: DIQMTQSPSSLSASVGDRVTITCRASQGISSYLAWYQQKPGKAPKLLIYTASTLQSGVPSRFSGSGSGTDFTLTISSLQPEDFATYYCQQIWMAPRTFGQGTKVEIK	0.5
XX06 (FabCys format) (Fab, V domains shown, Monovalent FabCys) VH: QVQLLESGGGLVQPGGSLRLSCAASGFTFSSYWMNWVRQAPGKGLEWVSAISSDGSYTYYADSVKGRFTISRDNSKNTLYLQMNSLRAEDTAVYYCARDRYSMIYSYGAGAFDYWGQGTLVTVSS VL: DIQMTQSPSSLSASVGDRVTITCRASQGISSYLAWYQQKPGKAPKLLIYTASTLQSGVPSRFSGSGSGTDFTLTISSLQPEDFATYYCQQTWRKPRTFGQGTKVEIK	0.3

Data request, read-out Kd, for XX07 (FabCys format) (Fab, V domains shown, Monovalent FabCys) VH: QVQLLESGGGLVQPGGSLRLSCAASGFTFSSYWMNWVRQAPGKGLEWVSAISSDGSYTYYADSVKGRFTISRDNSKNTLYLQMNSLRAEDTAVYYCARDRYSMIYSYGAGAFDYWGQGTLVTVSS VL: DIQMTQSPSSLSASVGDRVTITCRASQGISSYLAWYQQKPGKAPKLLIYTASTLQSGVPSRFSGSGSGTDFTLTISSLQPEDFATYYCQQIWTVPRTFGQGTKVEIK 0.5

Data request, read-out Kd, for XX04 (FabCys format) (Fab, V domains shown, Monovalent FabCys) VH: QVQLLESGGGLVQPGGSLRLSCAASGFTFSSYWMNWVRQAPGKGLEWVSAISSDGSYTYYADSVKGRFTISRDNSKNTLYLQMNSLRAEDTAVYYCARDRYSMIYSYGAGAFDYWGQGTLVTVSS VL: DIQMTQSPSSLSASVGDRVTITCRASQGISSYLAWYQQKPGKAPKLLIYTASTLQSGVPSRFSGSGSGTDFTLTISSLQPEDFATYYCQQEWVKPRTFGQGTKVEIK 0.3

Data request, read-out Kd, for XX03 (FabCys format) (Fab, V domains shown, Monovalent FabCys) VH: EVQLLESGGGLVQPGGSLRLSCAASGFTFSSYWMNWVRQAPGKGLEWVSVIESKGNYIFYADSVKGRFTISRDNSKNTLYLQMNSLRAEDTAVYYCARDRYSMIYSYGAGAFDYWGQGTLVTVSS VL: DIQMTQSPSSLSASVGDRVTITCRASQGISSYLAWYQQKPGKAPKLLIYTASTLQSGVPSRFSGSGSGTDFTLTISSLQPEDFATYYCMQSYEKPRTFGQGTKVEIK 0.1

Data request, read-out Kd, for XX01 (FabCys format) (Fab, V domains shown, Monovalent FabCys) VH: EVQLLESGGGLVQPGGSLRLSCAASGFTFNTHYIHWVRQAPGKGLEWVSSISSSGQSTYYADSVKGRFTISRDNSKNTLYLQMNSLRAEDTAVYYCARERGYVYYHMFDPWGQGTLVTVSS VL: DIVLTQSPATLSLSPGERATLSCRASQSITRNYLAWYQQKPGQAPRLLIYGASSRATGIPARFSGSGSGTDFTLTISSLEPEDFAVYYCQQHSMYPRTFGQGTKVEIK 0.5
